target: Adenosine A2 receptor (Rattus norvegicus) (UniProt P29276+P30543); assay: Inhibition of radioligand R[3H]-CGS 21680 binding to adenosine A2 receptors in rat striatal membrane at 20 uM concentration.; assay type: cell membranes; settings: Striatum
In this section we review reported inhibition values for a set of compounds.
recorded metric: inhibition (%)

> print(dat)
                     structure.smiles.string  numeric.result
 1   CCn1c(=O)[nH]c2c(cnn2-c2cccc(Cl)c2)c1=N              24
 2     Cn1c(=O)[nH]c2c(cnn2-c2cccc(N)c2)c1=N               0
 3      Cn1c(=O)[nH]c2c(cnn2-c2ccccc2Br)c1=N               0
 4    Cn1c(=O)[nH]c2c(cnn2-c2ccc(Br)cc2)c1=N               7
 5       CCn1c(=O)[nH]c2c(cnn2-c2ccccc2)c1=N              16
 6     Cn1c(=O)[nH]c2c(cnn2-c2cccc(F)c2)c1=N              22
 7  Cn1c(=O)[nH]c2c(cnn2-c2ccc(Cl)cc2Cl)c1=N               0
 8        Cn1c(=O)[nH]c2c(cnn2-c2ccccc2)c1=N               7
 9       Cn1c(=O)[nH]c2c(cnn2-c2ccccc2F)c1=N               0
10     Cn1c(=O)[nH]c2c(cnn2-c2ccc(F)cc2)c1=N               0
